# reported GI50; entries follow
- System: A375 human skin epithelial malignant melanoma cells
- experiment.description: MTT cell toxicity assay
- Assay type: cell-based
- test.conditions: Homo sapiens, A-375, 72 h, read-out: cancer cell growth inhibition, GI50

{"compound": "COc1cc(COC(=O)CCCCC[P+](c2ccccc2)(c2ccccc2)c2ccccc2)c(OC)c2c1OCO2.[Br-]", "inequality.symbol": "=", "GI50 (µM)": 3.43}
{"compound": "C=CCc1cc(OC)c2c(c1)OCO2", "inequality.symbol": ">", "GI50 (µM)": 250}
{"compound": "COc1cc(CNC(=O)CCCCC[P+](c2ccccc2)(c2ccccc2)c2ccccc2)c(OC)c2c1OCO2.[Br-]", "inequality.symbol": "=", "GI50 (µM)": 2.78}
{"compound": "COc1cc(CCCO)c(OC)c2c1OCO2", "inequality.symbol": ">", "GI50 (µM)": 250}
{"compound": "COc1cc(CCCO)cc2c1OCO2", "inequality.symbol": ">", "GI50 (µM)": 250}
